ASSAYED_TARGET: T1, recombinant human IL-4 (human, UniProt P05112 25-153)
T1 construct: Bought reagent
T1 sequence (looked up): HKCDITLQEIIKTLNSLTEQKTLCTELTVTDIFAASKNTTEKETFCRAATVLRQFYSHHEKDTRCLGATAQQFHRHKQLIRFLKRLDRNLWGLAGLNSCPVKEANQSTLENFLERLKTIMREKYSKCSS
EXPERIMENT_SUMMARY: SPR Biacore 3000, antibody captured, cytokine in solution
Record form. Attribute: kon. Fill in for each entry.
Give bare numbers, in M⁻¹ s⁻¹.

Below, 3 binders whose answers are already recorded.
BINDER	kon / M⁻¹ s⁻¹
mouse anti-IL-4 monoclonal antibody clone 8D4-8 (antibody, V domains shown, Bought mouse monoclonal antibody (Biozol / BioLegend); also called murine 8D4-8) VH: QVQLQQSGPQLVRPGTSVKISCKASGYSFTSYWIHWIKQRPGQGLEWIGMIDPSDGETRLNQRFKDRATLTVDRSSSTAYMQLRSPTSEDSALYYCTRLKEYGNYDSFYFDVWGAGTTVTVSS VL: DIQMNQSPASLSVSLGDTITLTCHASQNIDVWLSWFQQSPGNIPKLLIYKASNLHTGVPSRFSGSGSGTGFTLTISSLQPEDIATYYCQQAHSYPFTFGGGTKLEIKR	5.57e+06
chimeric anti-IL-4 clone 8D4-8 monoclonal antibody (antibody, V domains shown, Murine variable domains fused to IGHG1 and IGKC; also called ch8D4-8 WT; chimeric 8D4-8) VH: QVQLQQSGPQLVRPGTSVKISCKASGYSFTSYWIHWIKQRPGQGLEWIGMIDPSDGETRLNQRFKDRATLTVDRSSSTAYMQLRSPTSEDSALYYCTRLKEYGNYDSFYFDVWGAGTTVTVSS VL: DIQMNQSPASLSVSLGDTITLTCHASQNIDVWLSWFQQSPGNIPKLLIYKASNLHTGVPSRFSGSGSGTGFTLTISSLQPEDIATYYCQQAHSYPFTFGGGTKLEIK	2.49e+07
Hu8D4-8 VL1 × VH2 (antibody, V domains shown, Expressed as a whole antibody, purified on Protein A; also called humanized 8D4-8 VL1xVH2) VH: QVQLQQSGPELVKPGASVKISCKASGYSFTSYWIHWIKQRPGQGLEWIGMIDASDGETRLNQRFQGRATLTVDESTSTAYMQLRSPTSEDSAVYYCTRLKEYGNYDSFYFDVWGAGTLVTVSS VL: DIQMTQSPASLSVSVGDTITLTCHASQNIDVWLSWFQQKPGNIPKLLIYKASNLHTGVPSRFSGSGSGTGFTLTISSLQPEDIATYYCQQAHSYPFTFGGGTKLEIKR	2.57e+07

# context switch: different binder, same kon
Exercise: Any idea what kon was measured for Hu8D4-8 VL1 × VH1 (antibody, V domains shown, Expressed as a whole antibody, purified on Protein A; also called hu8D4-8 VL1xVH1; humanized 8D4-8 VL1xVH1) VH: QVQLQQSGPELVKPGASVKISCKASGYSFTSYWIHWIKQRPGQGLEWIGMIDPSDGETRLNQRFQGRATLTVDESTSTAYMQLRSPTSEDSAVYYCTRLKEYGNYDSFYFDVWGAGTLVTVSS VL: DIQMTQSPASLSVSVGDTITLTCHASQNIDVWLSWFQQKPGNIPKLLIYKASNLHTGVPSRFSGSGSGTGFTLTISSLQPEDIATYYCQQAHSYPFTFGGGTKLEIKR ?
Key: 4.72e+07
